System: PC-3 prostate
Protocol Text: NCI tumour cell line growth inhibition, 48 h
Would you mind labelling by TGI? At or over 30 µM is YES, under is NO.

Molecule | Classification
O=C(NCc1ccncc1)C12CC3CC(C1)CC(c1ccc(Cl)cc1)(C3)C2 | NO
O=C(c1cc2c(c3ccccc13)NCCN=C2C(F)(F)F)C(F)(F)F | YES
CCCCCCc1nc2nc(Cl)c(Cl)nc2[nH]1 | YES
C=C1C(=O)O[C@@H]2C1C[C@@H](O)C(=C)CC/C=C(\C)CCC[C@H](C)[C@H]2OC(C)=O (some centres undefined) | NO
C#CCCCOc1ncccn1 | YES
COC(=O)CSC(=S)Nc1nnc(NC(=S)SCOC(C)=O)n1C(=S)SCC(=O)OC | YES
Cn1c2c3ccc(Cl)cc3nc-2c(Cl)c2ccccc21 | YES
O=C1C(=Cc2cccc(O)c2)N=C(c2ccccc2)N1n1c(-c2ccccc2)nc2ccccc2c1=O | YES
Clc1cc(Br)c2c3c(c(Br)cc(Cl)c13)C(Br)=C2Br | YES

---

Tested on: HT29 colon
Protocol Text: NCI tumour cell line growth inhibition, 48 h
Observation Type: TGI

Compound | Tested Target | Meas Value
NC1=NCCN1CC(=O)O | HT29 colon | > 10000 µM
Cc1nn(-c2nc3ccccc3s2)c2c1C(=O)c1ccccc1-2 | HT29 colon | > 100 µM
Cc1ccc(C(=O)OCC(C)C)cc1N=NN(C)C | HT29 colon | > 100 µM
CC(C)(C)c1ccc(/C=N/NC(=O)CSCC(=O)N/N=C/c2ccc(C(C)(C)C)cc2)cc1 | HT29 colon | 3.87 µM
Cc1cc(C)nc(SCCc2cccc[n+]2C)n1 | HT29 colon | > 100 µM
COc1c(C)cc2c(c1O)C1NC(C2)[C@H](O)N2C3COC(=O)[C@@]4(CS[C@@H](c5c(OC(C)=O)c(C)c6c(c53)OCO6)C12)NCCC1=C4NC2C=CC=CC12 (some centres not stated) | HT29 colon | 0.107 µM
CN1Cc2cc3c(cc2-c2ccccc21)OCO3 | HT29 colon | > 100 µM
CCOc1ccc(NC(=O)C2=C(C)NC(C)=C(C(=O)Nc3ccc(OCC)cc3)C2c2ccccc2)cc1 | HT29 colon | > 100 µM
CCCCCCCCCCCCOC1C(C(CC(=O)N2CCN(c3cccc(C(F)(F)F)c3)CC2)NS(=O)(=O)c2cc(Cl)cc(Cl)c2)OC2OC(C)(C)OC21 (configuration not stated) | HT29 colon | > 100 µM
c1ccc(C[N+]23CN4CN(CN(C4)C2)C3)cc1 | HT29 colon | > 100 µM
C1=NCCNCCNCCN=Cc2ccccc2OCc2cccc(n2)COc2ccccc21 | HT29 colon | 51.6 µM
OCC1OC(n2cnc3c(Cl)nc(Cl)cc32)C(O)C1O (configuration not stated) | HT29 colon | > 100 µM

---

Test system: OVCAR-4 ovarian
Protocol Text: NCI tumour cell line growth inhibition, 48 h
Observation Type: TGI

Compound | Tested Target | Observation Type | Meas Value
CNC(=O)Oc1cc(C)c(/C=C/c2cncc(C(=O)NC)c2)c(C)c1 | OVCAR-4 ovarian | TGI | > 25 µM
CCOP(=O)(OCC)C(C(=O)OC)C(=O)C(=O)Nc1c(C)cc(Br)cc1C (stereo unspecified) | OVCAR-4 ovarian | TGI | > 100 µM
CC(=O)C1(N=Nc2ccc(S(N)(=O)=O)cc2)CCOC1=O (stereo unspecified) | OVCAR-4 ovarian | TGI | > 100 µM
CCOC(=O)C(NCc1cccc(C(F)(F)F)c1)(NC(=O)CC)C(F)(F)F (stereo unspecified) | OVCAR-4 ovarian | TGI | > 100 µM
COc1cc(N(Cc2ccc3nc(OC)c(OC)nc3c2)Cc2ccc3nc(OC)c(OC)nc3c2)cc(OC)c1OC | OVCAR-4 ovarian | TGI | > 50 µM
Cc1ccc(C)c2c1CC(Cc1ccccc1C(=O)O)C2=O (stereo unspecified) | OVCAR-4 ovarian | TGI | > 100 µM
CCCCCCCC(=O)OCC1OC(OC)C(NC(=O)N(CCCl)N=O)C(O)C1O (stereo unspecified) | OVCAR-4 ovarian | TGI | > 100 µM
O=c1oc2ccc(-n3c(=O)c4ccccc4c4ccccc4c3=O)cc2c2ccccc12 | OVCAR-4 ovarian | TGI | > 100 µM
O=C1C(=Cc2cccc(O)c2)N=C(c2ccccc2)N1n1c(-c2ccccc2)nc2ccccc2c1=O | OVCAR-4 ovarian | TGI | > 100 µM
COc1ccc2[nH]cc(CCNC(=O)[C@](O)(Cc3cn(C)c4ccccc34)[C@@]3(O)OCC(O)C3O)c2c1 (stereo partly specified) | OVCAR-4 ovarian | TGI | > 100 µM
C=C(CN1CCN(c2cccc(C(F)(F)F)n2)CC1)c1ccc(C(=S)Nc2ccccc2N)cc1 | OVCAR-4 ovarian | TGI | > 100 µM
O=C1CCCC2C3CC(CN12)C1CCCCN1C3 (stereo unspecified) | OVCAR-4 ovarian | TGI | > 100 µM
O=c1c2cc([N+](=O)[O-])ccc2n2n1CCCC2 | OVCAR-4 ovarian | TGI | > 100 µM
CC(=O)c1cccc(NC(=O)C(=O)Nn2c(N)nnc2N)c1 | OVCAR-4 ovarian | TGI | > 100 µM
CN(C)Cc1cc(C=O)cc(CN(C)C)c1O | OVCAR-4 ovarian | TGI | > 100 µM
COC(=O)[C@H](Cc1ccc(O)cc1)NC(=O)[C@@H](OC)[C@@H]1Cc2cc3cc(OC4CC(OC5CC(O)C(O)C(C)O5)C(O)C(C)O4)c(C)c(O)c3c(O)c2C(=O)[C@H]1OC1CC(OC2CC(OC3CC(C)(O)C(O)C(C)O3)C(O)C(C)O2)C(O)C(C)O1 (stereo partly specified) | OVCAR-4 ovarian | TGI | > 25 µM
O=C1OCc2cc3cc4c(cc3c(-c3ccc5c(c3)OCO5)c21)OCO4 (tested in a mixture with another compound) | OVCAR-4 ovarian | TGI | > 100 µM
CC1OC(OC2C(CO)OC(O[C@H]3CC[C@@]4(C)C(=CC[C@H]5[C@@H]6C[C@@H]7O[C@]8(CC[C@@H](C)CN8)[C@@H](C)[C@@H]7[C@@]6(C)CC[C@@H]54)C3)C(O)C2O)C(O)C(O)C1O (stereo partly specified) | OVCAR-4 ovarian | TGI | > 100 µM
COC1O[C@H]2[C@H]3[C@@H]1[C@@H](OS(=O)(=O)c1ccc(C)cc1)C(=O)N3C[C@H]2O (stereo partly specified) | OVCAR-4 ovarian | TGI | > 100 µM
CSCCOC(=O)C(=[N+]=[N-])c1ccc([N+](=O)[O-])cc1 | OVCAR-4 ovarian | TGI | > 100 µM
N#Cc1nc(C(CO)N(Cc2ccccc2)C(=O)O)oc1N (stereo unspecified) | OVCAR-4 ovarian | TGI | > 100 µM
